Numbers sourced from patent US4603209A.

- Run description: Ca2+ titration of dye fluorescence in Ca-EGTA buffers
- Type: binding
- Experimental setup: 100 mM KCl, 37° C., pH 7.08; cis-trans mixture as saponified; read-out: Apparent Kd for Ca^2+

| Structure smiles string | Unit of measure | Kd |
| --- | --- | --- |
| Cc1ccc(N(CC(=O)O)CC(=O)O)c(OCCOc2cc(/C=C/c3ccc(S(=O)(=O)N(C)C)cc3)ccc2N(CC(=O)O)CC(=O)O)c1 | nM | 224 |

---

- Run description: Zn2+ titration of dye fluorescence in Zn-EGTA buffer, Hill plots
- Assay type: binding
- Experimental setup: 120 mM KCl, pH 7.12, room temperature; read-out: dissociation constant for zinc
pKd: −log10 of the molar value.
Reported property: pKd

| Structure smiles string | Reported property | Result |
| --- | --- | --- |
| Cc1ccc(N(CC(=O)O)CC(=O)O)c(OCCOc2cc3cc(-c4ncc(C(=O)O)o4)oc3cc2N(CC(=O)O)CC(=O)O)c1 | pKd | 8.70 to 8.80 |
| Cc1ccc(N(CC(=O)O)CC(=O)O)c(OCCOc2cc(/C=C/c3ccc(C(=O)O)cc3)ccc2N(CC(=O)O)CC(=O)O)c1 | pKd | 8.70 to 8.80 |

---

- Run description: Mg2+ titration of dye excitation spectrum in Mg-EGTA buffers
- Assay type: binding
- Experimental setup: 20°, 0.1-0.15M ionic strength; read-out: Mg^2+ dissociation constant
pKd: −log10 of the molar value.

| Compound | pKd |
| --- | --- |
| Cc1ccc(N(CC(=O)O)CC(=O)O)c(OCCOc2cc3cc(-c4ncc(C(=O)O)o4)oc3cc2N(CC(=O)O)CC(=O)O)c1 [fura-2] | ~2.01 |

---

- Run description: Mg2+ titration of dye excitation spectrum in Mg-EGTA buffers
- Assay type: binding
- Experimental setup: 37° C., 0.1-0.15M ionic strength; read-out: Mg^2+ dissociation constant
Reported property: Kd

| Structure smiles string | Result |
| --- | --- |
| Cc1ccc(N(CC(=O)O)CC(=O)O)c(OCCOc2cc3cc(-c4ncc(C(=O)O)o4)oc3cc2N(CC(=O)O)CC(=O)O)c1 | ~5.6 mM |

---

- Type: binding
- Experimental setup: pH 7.02 in 225 mM KCl, 25 mM NaCl at 18°; freshly determined; read-out: apparent dissociation constant for Mg-EGTA

| Structure smiles string | Kd (mM) |
| --- | --- |
| O=C(O)CN(CCOCCOCCN(CC(=O)O)CC(=O)O)CC(=O)O | 99 |
